Species on record: Rattus norvegicus
Test: Open TG-GATES - Regimen: Single
Assay type: toxicity, organism-based, Sprague-Dawley
Design: regimen Single, gender Male, age 6 weeks
Details: in vivo, po, 0 mg/kg, 6 h, tissue Blood, route gavage, dose level Control
Measured attribute: Ret (%)

- COc1cc2ncnc(Nc3ccc(F)c(Cl)c3)c2cc1OCCCN1CCOCC1: 9.7
- C=C[C@H]1C[N@@]2CC[C@H]1C[C@@H]2[C@@H](O)c1ccnc2ccc(OC)cc12: 7
- O=c1ccc2ccccc2o1: 9.3
- CCO: 10.4

* * *

Organism: Rattus norvegicus
Assay: Open TG-GATES - Regimen: Daily Repeat
Format: toxicity, organism-based, Sprague-Dawley
Design: regimen Daily Repeat, gender Male, age 6 weeks
Conditions: in vivo, po, 0 mg/kg, […], tissue Plasma, route gavage, dose level Control, time 7 day
Here the recorded Na is given for each entry.
Measured attribute: Na (meq/L)

- CC(S)C(=O)NCC(=O)O (stereo unspecified): 141.6
- CCN(CC)C(=S)SSC(=S)N(CC)CC: 142
- NS(=O)(=O)c1cc(C(=O)O)c(NCc2ccco2)cc1Cl [FUROSEMIDE]: 142.6
- CN(C/C=C/C#CC(C)(C)C)Cc1cccc2ccccc12: 141.8
- O=C(O)c1ccccc1Nc1ccccc1: 143.2
- Nc1ccc(Cc2ccc(N)cc2)cc1: 143.2

The measured values listed here are drawn from ChEMBL document CHEMBL3885861.
